# Tested on: RWPE-1
# RUN_DESCRIPTION: Cytotoxicity against human RWPE1 cells incubated for 72 hrs by MTT assay
# Type: cell-based
# CONDITION_NOTES: RWPE-1, 72 h
MEASUREMENT_NAME: pIC50
One number for each entry, as −log10 of the molar value.

Which pIC50 value belongs to C[C@H]1[C@H](N2CCN(C(=S)SCc3ccc(C#N)cc3)CC2)O[C@@H]2O[C@@]3(C)CC[C@H]4[C@H](C)CC[C@@H]1[C@@]24OO3 ?
7.98

* * *

# Tested on: MCF7
# RUN_DESCRIPTION: Cytotoxicity against human MCF7 cells incubated for 72 hrs by MTT assay
# Type: functional, cell-based
# CONDITION_NOTES: MCF7, 72 h
MEASUREMENT_NAME: IC50 (nM)
Numbers only, in nM.

Which IC50 value belongs to C[C@H]1[C@H](N2CCN(C(=S)SCc3ccc(C#N)cc3)CC2)O[C@@H]2O[C@@]3(C)CC[C@H]4[C@H](C)CC[C@@H]1[C@@]24OO3 ?
13.5

// provenance: ChEMBL document CHEMBL4346655
